- Test system: TBK1 (Homo sapiens)
- Sequence (Q9UHD2 1-729): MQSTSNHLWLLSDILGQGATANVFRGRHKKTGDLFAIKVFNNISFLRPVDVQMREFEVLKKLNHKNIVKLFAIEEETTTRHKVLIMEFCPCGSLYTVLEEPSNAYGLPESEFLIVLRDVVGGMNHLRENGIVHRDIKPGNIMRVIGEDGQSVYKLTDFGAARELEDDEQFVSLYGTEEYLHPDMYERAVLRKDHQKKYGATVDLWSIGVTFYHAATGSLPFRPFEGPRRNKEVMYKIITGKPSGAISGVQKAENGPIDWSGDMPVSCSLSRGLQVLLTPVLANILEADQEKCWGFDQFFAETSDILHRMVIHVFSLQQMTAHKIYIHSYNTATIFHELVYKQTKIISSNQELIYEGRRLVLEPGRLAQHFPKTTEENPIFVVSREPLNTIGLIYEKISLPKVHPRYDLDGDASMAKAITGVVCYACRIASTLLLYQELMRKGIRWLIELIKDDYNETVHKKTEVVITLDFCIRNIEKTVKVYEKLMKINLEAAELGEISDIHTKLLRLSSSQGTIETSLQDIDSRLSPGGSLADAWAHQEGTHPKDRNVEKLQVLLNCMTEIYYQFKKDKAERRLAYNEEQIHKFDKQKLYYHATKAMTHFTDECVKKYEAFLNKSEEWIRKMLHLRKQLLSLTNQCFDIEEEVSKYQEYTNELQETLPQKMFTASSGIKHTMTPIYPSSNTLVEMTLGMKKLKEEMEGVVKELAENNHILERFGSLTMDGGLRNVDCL
- Assay overview: TBK biochemical assay
- Conditions: 10 point 1:4 dose response, 30 uM top concentration, 90 min at 25° C., LabChip EZ Reader II; read-out: TBK1_IC50
pIC50: −log10 of the molar value.
Experimental endpoint: pIC50

In the examples that follow, each entry is paired with its recorded pIC50.
INSERT INTO results (compound, test_system, result) VALUES
  ('COc1nc(Nc2ncc(F)c(-c3ccc(O[C@@H]4CCN(C(=O)[C@H](C)O)CC4(F)F)c(C#N)c3)n2)ccc1N1CCN(C2COC2)CC1', 'TBK1 (Homo sapiens)', '> 7.00'),
  ('COc1cc(Nc2nccc(-c3ccc(OC4CCOCC4)c(C#N)n3)n2)ncc1C(=O)N(C)C', 'TBK1 (Homo sapiens)', '6.00 to 7.00'),
  ('COc1nc(Nc2nccc(-c3ccc(OC4CCNCC4)c(C#N)c3)n2)ccc1C(=O)N(C)C', 'TBK1 (Homo sapiens)', '> 7.00'),
  ('COc1nc(Nc2nccc(-c3ccc(O[C@H]4CCN(C(=O)[C@H](C)O)CC4(F)F)c(C#N)c3)n2)ccc1N1CCN(C2COC2)CC1 [Example 120]', 'TBK1 (Homo sapiens)', '> 7.00');

pIC50 measured on C[C@H](O)C(=O)N1CCC(Oc2ccc(-c3ccnc(Nc4ccc(N5CCN(C6COC6)CC5)cc4)n3)nc2C#N)C(F)(F)C1 (stereo partly shown) = > 7.00

pIC50 measured on C[C@H](O)C(=O)N1CC(Oc2ccc(-c3ccnc(Nc4ccc(N5CCN(C6COC6)CC5)cc4)n3)cc2C#N)C1 = 6.00 to 7.00

pIC50 measured on C[C@@H](O)C(=O)N1CCC(Oc2ccc(-c3ccnc(Nc4cccnc4)n3)cc2C#N)C(F)(F)C1 (stereo partly shown) = > 7.00

pIC50 measured on COc1nc(Nc2nccc(-c3ccc(O[C@H]4CCN(C(=O)[C@@H](O)CO)C[C@@H]4F)c(C#N)c3)n2)ccc1N1CCN(C2COC2)CC1 = > 7.00

---

- Test system: IKKε (Homo sapiens)
- Sequence (Q14164 whole entry, species assumed): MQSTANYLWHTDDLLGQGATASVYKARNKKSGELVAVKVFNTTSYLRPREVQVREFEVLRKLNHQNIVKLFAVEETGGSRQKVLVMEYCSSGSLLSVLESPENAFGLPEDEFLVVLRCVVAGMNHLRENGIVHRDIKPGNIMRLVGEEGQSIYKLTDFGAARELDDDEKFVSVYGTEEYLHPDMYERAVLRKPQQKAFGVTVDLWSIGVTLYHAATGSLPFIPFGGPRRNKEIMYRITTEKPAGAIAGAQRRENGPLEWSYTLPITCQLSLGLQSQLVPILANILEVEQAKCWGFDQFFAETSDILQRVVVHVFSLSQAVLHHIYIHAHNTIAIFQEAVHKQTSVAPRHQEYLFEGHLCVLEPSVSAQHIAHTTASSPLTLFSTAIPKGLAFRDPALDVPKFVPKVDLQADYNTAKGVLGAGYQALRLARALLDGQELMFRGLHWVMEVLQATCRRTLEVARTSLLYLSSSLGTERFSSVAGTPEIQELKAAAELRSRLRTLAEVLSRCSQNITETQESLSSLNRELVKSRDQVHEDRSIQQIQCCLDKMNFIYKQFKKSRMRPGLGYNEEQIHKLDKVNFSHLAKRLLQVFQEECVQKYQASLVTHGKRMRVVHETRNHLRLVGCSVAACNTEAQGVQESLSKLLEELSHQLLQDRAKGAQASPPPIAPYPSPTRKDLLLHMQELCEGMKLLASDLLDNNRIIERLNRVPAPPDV
- Assay overview: IKKε biochemical assay
- Conditions: 10 point 1:4 dose response, 30 uM top concentration, 90 min at 25° C., LabChip EZ Reader II; read-out: IKKε_IC50
pIC50: −log10 of the molar value.
pIC50 overview

In the examples that follow, each entry is paired with its recorded pIC50.
INSERT INTO assay_data (compound, experimental_endpoint, result) VALUES
  ('C[C@@H](O)C(=O)N1CCC(Oc2ccc(-c3ccnc(Nc4ccc(N5CCN(C6COC6)CC5)cc4)n3)cc2C#N)C(F)(F)C1 (stereo partly shown)', 'pIC50', '> 7.00'),
  ('C[C@H](O)C(=O)N1CCC(Oc2ccc(-c3ccnc(Nc4ccccc4)n3)cc2C#N)C(F)(F)C1 (stereo partly shown)', 'pIC50', '> 7.00'),
  ('COc1nc(Nc2nccc(-c3ccc(OC4CN(C(=O)[C@H](C)O)C4)c(C#N)c3)n2)ccc1N1CCN(C2COC2)CC1', 'pIC50', '6.00 to 7.00');

Please examine the following record next.
pIC50 measured on COc1nc(Nc2nccc(-c3ccc(OC4CCN(C(=O)CO)CC4)c(C#N)c3)n2)ccc1N1CCN(C2COC2)CC1 = > 7.00

---

- Test system: TBK1 (Homo sapiens, UniProt Q9UHD2)
- Assay overview: TBK biochemical assay
- Conditions: 10 point 1:4 dose response, 30 uM top concentration, 90 min at 25° C., LabChip EZ Reader II; read-out: TBK1_IC50
Counter-ions that a name gives are not always drawn.
IC50 overview

In the examples that follow, each entry is paired with its recorded IC50.
INSERT INTO results (compound, experimental_endpoint, result) VALUES
  ('COc1nc(Nc2nccc(-c3ccc(OC4CCN(C)C4)c(C#N)c3)n2)ccc1C(=O)N(C)C (stereo not shown) [Example 70, hydrochloride]', 'IC50', '100 to 1000 nM'),
  ('COc1nc(Nc2nccc(-c3ccc(OC4CCOCC4)c(C#N)c3)n2)ccc1N1CCN(C(C)=O)CC1', 'IC50', '< 100 nM'),
  ('COc1nc(Nc2nccc(-c3ccc(OC4CCN(C(=O)[C@H](C)O)CC4(F)F)c(C#N)c3)n2)ccc1C(=O)N(C)C (stereo partly shown)', 'IC50', '< 100 nM');

Please examine the following record next.
IC50 measured on COc1nc(Nc2nccc(-c3ccc(OC4CCOCC4)c(C#N)c3)n2)ccc1C(=O)NC1CCN(C)CC1 = < 100 nM

---

- Test system: IKKε (Homo sapiens)
- Assay overview: IKKε biochemical assay
- Conditions: 10 point 1:4 dose response, 30 uM top concentration, 90 min at 25° C., LabChip EZ Reader II; read-out: IKKε_IC50
pIC50: −log10 of the molar value. Counter-ions that a name gives are not always drawn.
pIC50 overview

In the examples that follow, each entry is paired with its recorded pIC50.
INSERT INTO assay_data (molecule, test_system, experimental_endpoint, result) VALUES
  ('COc1nc(Nc2nccc(-c3ccc(OC4CCNCC4(F)F)c(C#N)c3)n2)ccc1N1CCN(C2COC2)C[C@H]1C (some centres unmarked) [Example 129]', 'IKKε (Homo sapiens)', 'pIC50', '> 7.00'),
  ('COc1nc(Nc2nccc(-c3ccc(OC4CCOCC4)c(C#N)c3)n2)ccc1C(=O)N(C)C [Example 1]', 'IKKε (Homo sapiens)', 'pIC50', '> 7.00'),
  ('COCCN1CCN(c2ccc(Nc3nccc(-c4ccc(OC5CCOCC5)c(C#N)c4)n3)nc2OC)CC1 [Example 166]', 'IKKε (Homo sapiens)', 'pIC50', '> 7.00'),
  ('COc1cccc(Nc2nccc(-c3ccc(O[C@H]4CCN(C(=O)[C@H](C)O)CC4(F)F)c(C#N)c3)n2)n1 [Example 240]', 'IKKε (Homo sapiens)', 'pIC50', '6.00 to 7.00'),
  ('COc1nc(Nc2nccc(-c3ccc(OC4CCN(C(=O)[C@@H]5CCC(=O)N5)CC4(F)F)c(C#N)c3)n2)ccc1N1CCN(C2COC2)CC1 (some centres unmarked) [Example 256]', 'IKKε (Homo sapiens)', 'pIC50', '> 7.00'),
  ('COc1nc(Nc2nccc(-c3ccc(O[C@H]4CCN(C(=O)[C@@H](O)CO)C[C@@H]4F)c(C#N)c3)n2)ccc1N1CCN(C2COC2)CC1 [Example 197]', 'IKKε (Homo sapiens)', 'pIC50', '> 7.00'),
  ('COc1nc(Nc2nccc(-c3ccc(O[C@H]4CCN(C(=O)[C@H](C)O)CC4(F)F)c(C#N)c3)n2)ccc1N1CCN(C2COC2)CC1 [Example 120]', 'IKKε (Homo sapiens)', 'pIC50', '> 7.00'),
  ('COc1nc(Nc2nccc(-c3ccc(OC4CN(C(=O)[C@@H](C)O)C4)c(C#N)c3)n2)ccc1N1CCN(C2COC2)CC1 [Example 176]', 'IKKε (Homo sapiens)', 'pIC50', '5.30 to 6.00');

pIC50 measured on COc1nc(Nc2nccc(-c3ccc(OC4CCN(C(=O)[C@@H](O)CO)CC4(F)F)c(C#N)c3)n2)ccc1N1CCN(C2COC2)CC1 (some centres unmarked) [Example 260] = > 7.00

pIC50 measured on COc1nc(Nc2nccc(-c3ccc(OC4CCN(C(=O)[C@@H](C)O)CC4(F)F)c(C#N)c3)n2)ccc1N1CCN(C)CC1C (stereo in doubt) [Example 110] = > 7.00

pIC50 measured on COc1nc(Nc2nccc(-c3ccc(OC4CCOCC4)c(C#N)c3)n2)ccc1C(=O)NC1CCN(C)CC1 [Example 14] = > 7.00

pIC50 measured on COc1nc(Nc2nccc(-c3ccc(OC4CCNCC4(F)F)c(C#N)c3)n2)ccc1N1CCN(C)C[C@H]1C (some centres unmarked) [Example 108] = > 7.00

pIC50 measured on COc1cc(Nc2nccc(-c3ccc(OC4CCOCC4)c(C#N)n3)n2)cnc1C(=O)N(C)C [Example 25] = > 7.00

pIC50 measured on COc1cc(Nc2nccc(-c3ccc(OC4CCN(C(=O)[C@H](C)O)CC4(F)F)c(C#N)c3)n2)ccc1N1CCN(C2COC2)CC1 (some centres unmarked) [Example 217] = > 7.00

pIC50 measured on COc1nc(Nc2ncc(C)c(-c3ccc(O[C@H]4CCN(C(=O)[C@H](C)O)CC4(F)F)c(C#N)c3)n2)ccc1N1CCN(C2COC2)CC1 [Example 284] = > 7.00

pIC50 measured on CN1CCN(c2ccc(Nc3nccc(-c4ccc(OC5CCN(C)C5)c(C#N)c4)n3)nc2)CC1 (centres unmarked) [Example 82, hydrochloride] = 5.30 to 6.00

pIC50 measured on COc1nc(Nc2nccc(-c3ccc(OCC4CN(C(=O)[C@H](C)O)C4)c(C#N)c3)n2)ccc1N1CCN(C2COC2)CC1 [Example 279] = 6.00 to 7.00

pIC50 measured on COc1nc(Nc2nccc(-c3ccc(OC4CCOCC4)c(C#N)c3)n2)ccc1C(=O)NC1CN2CCC1CC2 (centres unmarked) [Example 21] = > 7.00

pIC50 measured on COc1cc(C(=O)N(C)C)cnc1Nc1nccc(-c2ccc(OC3CCOCC3)c(C#N)c2)n1 [Example 58] = < 5.30

pIC50 measured on COc1nc(Nc2nccc(-c3ccc(OC4CCN(C(=O)[C@H](C)O)C4)c(C#N)c3)n2)ccc1N1CCN(C2COC2)CC1 (some centres unmarked) [Example 183] = > 7.00

Cited source for all entries: patent US20230019491A1
